Taken from ChEMBL document CHEMBL2046305.

Test system: Mycobacterium tuberculosis
Experiment: Antibacterial activity against Mycobacterium tuberculosis H37Rv ATCC 27294 by microplate alamar blue assay
Format: functional
# MIC listing for each entry below
OBSERVATION TYPE: MIC

{"MOLECULE": "CCCC[C@@H](O)CN1CCC(COc2cccc(C(=O)c3ccc(Cl)cc3)c2)CC1", "TARGET OR SYSTEM": "Mycobacterium tuberculosis", "RESULT": "6.2 mg/L"}
{"MOLECULE": "CCCCC(CN1CCC(COc2ccc(C(=O)c3ccc(Cl)cc3)c(Cl)c2)CC1)OC(N)=O (racemic)", "TARGET OR SYSTEM": "Mycobacterium tuberculosis", "RESULT": "3.25 mg/L"}
{"MOLECULE": "CCCCCCC[C@H](O)c1cccc(CN2CCC(COc3cccc(C(=O)c4ccc(Cl)cc4)c3)CC2)c1", "TARGET OR SYSTEM": "Mycobacterium tuberculosis", "RESULT": "12.5 mg/L"}
{"MOLECULE": "CO[C@H]1/C=C/O[C@@]2(C)Oc3c(C)c(O)c4c(O)c(c(/C=N/N5CCN(C)CC5)c(O)c4c3C2=O)NC(=O)/C(C)=C\\C=C\\[C@H](C)[C@H](O)[C@@H](C)[C@@H](O)[C@@H](C)[C@H](OC(C)=O)[C@@H]1C", "TARGET OR SYSTEM": "Mycobacterium tuberculosis", "RESULT": "0.07 mg/L"}
{"MOLECULE": "CCCCCC[C@@H](CN1CCC(COc2ccc(/C(=N\\OC)c3ccc(Cl)cc3)c(Cl)c2)CC1)OC(N)=O", "TARGET OR SYSTEM": "Mycobacterium tuberculosis", "RESULT": "1.5 mg/L"}
{"MOLECULE": "CCCCCCC[C@H](OC(N)=O)c1cccc(CN2CCC(COc3cccc(C(=O)c4ccc(Cl)cc4)c3)CC2)c1", "TARGET OR SYSTEM": "Mycobacterium tuberculosis", "RESULT": "12.5 mg/L"}

###

Tested on: Mycobacterium tuberculosis
Test: Antibacterial activity against non-replicating Mycobacterium tuberculosis H37Rv ATCC 27294 by low oxygen recovery assay
Format: functional
Lab note: anything with MIC below 3 µg/mL is marked yes (1); values at 3 µg/mL or higher are marked no (0).

{"MOLECULE": "CCCCCCC[C@H](O)c1cccc(CN2CCC(COc3cccc(C(=O)c4ccc(Cl)cc4)c3)CC2)c1", "CATEGORY": "yes (1)"}
{"MOLECULE": "CCCCCCC[C@@H](O)c1cccc(CN2CCC(COc3ccc(C(=O)c4ccc(Cl)cc4)c(Cl)c3)CC2)c1", "CATEGORY": "yes (1)"}
{"MOLECULE": "CCCCCCC[C@H](O)c1cccc(CN2CCC(COc3ccc(/C(=N\\OC)c4ccc(Cl)cc4)c(Cl)c3)CC2)c1", "CATEGORY": "no (0)"}
{"MOLECULE": "CCCCCCC[C@@H](O)c1cccc(CN2CCC(COc3cccc(C(=O)c4ccc(Cl)cc4)c3)CC2)c1", "CATEGORY": "yes (1)"}
{"MOLECULE": "CCCCCC[C@H](CN1CCC(COc2cccc(C(=O)c3ccc(Cl)cc3)c2)CC1)OC(N)=O", "CATEGORY": "yes (1)"}
{"MOLECULE": "CCCC[C@H](O)CN1CCC(COc2ccc(C(=O)c3ccc(Cl)cc3)c(Cl)c2)CC1", "CATEGORY": "yes (1)"}
{"MOLECULE": "CCCCC(O)CN1CCC(COc2cccc(C(=O)c3ccc(Cl)cc3)c2)CC1 (racemic)", "CATEGORY": "no (0)"}
{"MOLECULE": "CCCCCC[C@H](O)CN1CCC(COc2cccc(C(=O)c3ccc(Cl)cc3)c2)CC1", "CATEGORY": "no (0)"}
{"MOLECULE": "CCCCC(CN1CCC(COc2ccc(C(=O)c3ccc(Cl)cc3)c(Cl)c2)CC1)OC(N)=O (racemic)", "CATEGORY": "yes (1)"}
{"MOLECULE": "CCCCCCC[C@@H](OC(N)=O)c1cccc(CN2CCC(COc3cccc(C(=O)c4ccc(Cl)cc4)c3)CC2)c1", "CATEGORY": "no (0)"}
{"MOLECULE": "CCCCCCCC(O)c1cccc(CN2CCC(COc3ccc(C(=O)c4ccc(Cl)cc4)c(Cl)c3)CC2)c1 (racemic)", "CATEGORY": "yes (1)"}
{"MOLECULE": "CCCCCC[C@@H](O)CN1CCC(COc2cccc(C(=O)c3ccc(Cl)cc3)c2)CC1", "CATEGORY": "no (0)"}
{"MOLECULE": "CCCCCCC[C@@H](O)c1cccc(CN2CCC(COc3ccc(/C(=N\\OC)c4ccc(Cl)cc4)c(Cl)c3)CC2)c1", "CATEGORY": "no (0)"}
{"MOLECULE": "NNC(=O)c1ccncc1", "CATEGORY": "no (0)"}
{"MOLECULE": "CCCC[C@@H](O)CN1CCC(COc2ccc(C(=O)c3ccc(Cl)cc3)c(Cl)c2)CC1", "CATEGORY": "yes (1)"}
{"MOLECULE": "CCCCCC[C@@H](O)CN1CCC(COc2ccc(C(=O)c3ccc(Cl)cc3)c(Cl)c2)CC1", "CATEGORY": "no (0)"}
{"MOLECULE": "CCCCCCC[C@@H](OC(N)=O)c1cccc(CN2CCC(COc3ccc(C(=O)c4ccc(Cl)cc4)c(Cl)c3)CC2)c1", "CATEGORY": "no (0)"}
{"MOLECULE": "CCCCCCCC(O)c1cccc(CN2CCC(COc3cccc(C(=O)c4ccc(Cl)cc4)c3)CC2)c1 (racemic)", "CATEGORY": "yes (1)"}
